Molecular target: human IDO1 (Homo sapiens, UniProt P14902)
Sequence (P14902 whole entry): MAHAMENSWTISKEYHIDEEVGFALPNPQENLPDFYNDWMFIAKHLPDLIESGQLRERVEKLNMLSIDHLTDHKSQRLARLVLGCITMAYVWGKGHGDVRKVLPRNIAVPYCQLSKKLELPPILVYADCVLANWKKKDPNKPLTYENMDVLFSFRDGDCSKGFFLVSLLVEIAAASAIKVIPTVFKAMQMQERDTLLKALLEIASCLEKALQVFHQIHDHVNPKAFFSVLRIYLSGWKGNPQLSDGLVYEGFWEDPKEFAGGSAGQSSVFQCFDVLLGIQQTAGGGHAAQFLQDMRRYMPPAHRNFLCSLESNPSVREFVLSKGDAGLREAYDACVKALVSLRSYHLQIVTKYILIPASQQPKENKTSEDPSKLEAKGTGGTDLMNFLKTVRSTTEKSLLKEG
Assay: Assessment of human IDO-1 inhibitory activity in Hela cells (Interferon-gamma stimulated HeLa cells, Ehrlich reagent, absorbance 490 nm)
Format: cell-based
Design: endogenous in cells; host or cells: HeLa cells stimulated with interferon-gamma
Details: Hela Human IDO-1 cellular assay

{"columns": ["COMPOUND", "SYSTEM TESTED", "IC50"],
 "data": [
  ["CCN(c1ccc([C@@H](COC)CC(=O)O)cc1Nc1ccc(Cl)cc1F)C1CCOCC1 (single isomer, unassigned)", "human IDO1 (Homo sapiens, UniProt P14902)", "< 5 nM"],
  ["COCC(CC(=O)O)c1ccc(N2CCOC[C@H]2C(C)C)c(Nc2ccc(Cl)cc2)c1 (single isomer, unassigned) [Example 913]", "human IDO1 (Homo sapiens, UniProt P14902)", "< 5 nM"],
  ["CCOc1ncc(Nc2cc(C(CC)CC(=O)O)ccc2N(CC)C2CCN(Cc3ccccc3)CC2)cn1 (single isomer, unassigned)", "human IDO1 (Homo sapiens, UniProt P14902)", "< 50 nM"],
  ["CCC(CC(=O)O)c1cc(Nc2ccc(C#N)cn2)c(N(CC)C2CCOCC2)cc1F (single isomer, unassigned) [Example 862]", "human IDO1 (Homo sapiens, UniProt P14902)", "< 5 nM"]
]}
